# System: male rats
# assay_protocol: Plasma metabolite profiling (GC-MS, LC-MS, SPE-LC-MS) in male rats dosed once daily over 28 days (OECD 407)
# Type: in vivo, rat
# conditions: male rats, plasma, high dose, day 7
Marks after values point to notes of the source that are not given here.
Alanine, ratio versus control overview

Recorded results for 4 compounds are shown here.
[[record]]
compound = "O=P1(NCCCl)OCCCN1CCCl (centres unmarked) [Ifosfamide]"
measured_parameter = "Alanine, ratio versus control"
meas_value = 1.07

[[record]]
compound = "C#C[C@]1(OC(C)=O)CC[C@H]2[C@@H]3CCC4=CC(=O)CC[C@@H]4[C@H]3CC[C@@]21C [Norethindrone acetate]"
measured_parameter = "Alanine, ratio versus control"
meas_value = "0.88 *"

[[record]]
compound = "CCNC(=O)[C@@H]1CCCN1C(=O)[C@H](CCCNC(=N)N)NC(=O)[C@H](CC(C)C)NC(=O)[C@@H](COC(C)(C)C)NC(=O)[C@H](Cc1ccc(O)cc1)NC(=O)[C@H](CO)NC(=O)[C@H](Cc1c[nH]c2ccccc12)NC(=O)[C@H](Cc1cnc[nH]1)NC(=O)[C@@H]1CCC(=O)N1 [Buserelin acetate a.c., Buserelin acetate]"
measured_parameter = "Alanine, ratio versus control"
meas_value = "0.67 *"

[[record]]
compound = "CC(=O)O[C@]1(C(C)=O)CC[C@H]2[C@@H]3C[C@H](C)C4=CC(=O)CC[C@]4(C)[C@H]3CC[C@@]21C"
measured_parameter = "Alanine, ratio versus control"
meas_value = "0.73 *"


Endpoint output: Alanine, ratio versus control of C[C@@H]1CC2=CC(=O)CC[C@@H]2[C@H]2CC[C@@]3(C)[C@@H](CC[C@]3(C)O)[C@@H]21 . Value? 0.72 *

---

# System: male rats
# assay_protocol: Plasma metabolite profiling (GC-MS, LC-MS, SPE-LC-MS) in male rats dosed once daily over 28 days (OECD 407)
# Type: in vivo, rat
# conditions: m14; high dose; Table 14b
measured_parameter: erythro-Sphingosine (d18:1)
Could you keep your reply to the number by itself?

Some solved cases for reference:
[[record]]
molecule = "OCCNCCO [Diethanolamine]"
meas_value = 0.58

[[record]]
molecule = "C[C@]12CCC(=O)C=C1CC[C@@H]1[C@@H]2CC[C@@]2(C)[C@H]1CC[C@]2(C)O [17-alpha-Methyltestosterone]"
meas_value = 0.21


Any idea what erythro-Sphingosine (d18:1) was measured for C[C@]12C=CC3=C4CCC(=O)C=C4CCC3C1CC[C@@H]2O (stereo partly drawn) [Trenbolone] ? 0.06

---

# Tested on: male rats
# assay_protocol: Plasma metabolite profiling (GC-MS, LC-MS, SPE-LC-MS) in male rats dosed once daily over 28 days (OECD 407)
# Type: in vivo, rat
# conditions: m7; high dose; Table 10a
Counter-ions that a name gives are not always drawn. Marks after values point to notes of the source that are not given here.
measured_parameter: threo-Sphingosine (d18:1)

Check out these entries, answers already filled in.
[[record]]
compound = "CC(C)C(=O)Nc1ccc([N+](=O)[O-])c(C(F)(F)F)c1 [Flutamide]"
measured_parameter = "threo-Sphingosine (d18:1)"
meas_value = "1.39 *"

[[record]]
compound = "Cc1cccc(C)c1N(Cn1cccn1)C(=O)CCl"
measured_parameter = "threo-Sphingosine (d18:1)"
meas_value = "2.18 *"

[[record]]
compound = "Cn1cc[nH]c1=S"
measured_parameter = "threo-Sphingosine (d18:1)"
meas_value = "2.91 *"


Switching to the query record.
Request the reported threo-Sphingosine (d18:1) associated with CNCCC(Oc1ccc(C(F)(F)F)cc1)c1ccccc1 (stereo not shown) [Fluoxetine hydrochloride] 1.2
